pIC50 for Proto-oncogene tyrosine-protein kinase Src (Gallus gallus) - collated from the literature.
pIC50: −log10 of the molar value.
Would you please tag the item Met when its pIC50 is 7 or above, and Not met when it is below?

COc1cccc(Nc2ncc3cc(-c4c(Cl)cccc4Cl)c(=O)n(C)c3n2)c1: Met
CN1CCN(CCCCCNc2ncc3cc(-c4c(Cl)cccc4Cl)c(=O)n(C)c3n2)CC1: Met

Q) Threshold query (pIC50 >= 7) on CN1CCN(CCCNc2cc3nc(NC(=O)NC(C)(C)C)c(-c4ccccc4)cc3cn2)CC1
A) Not met

Q) Same question, C=CC(=O)Nc1ccc2ncnc(NCc3cccc4ccccc34)c2c1 this time
A) Not met
